# target_entity: GST-ATAF1 NAC domain (Arabidopsis thaliana, UniProt Q39013 7-158)
# Sequence: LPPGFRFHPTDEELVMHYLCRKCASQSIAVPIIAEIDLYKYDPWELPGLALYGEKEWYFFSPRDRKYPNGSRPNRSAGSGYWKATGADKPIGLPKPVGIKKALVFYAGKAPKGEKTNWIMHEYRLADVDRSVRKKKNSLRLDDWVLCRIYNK
# method_summary: universal protein binding microarray (PBM); high values mean tight binding
# condition_parameters: protein: recombinant; tags: GST; chain copies: 2; dsDNA, one strand shown
binding signal strictly less than 0.1 E-score = satisfied. Otherwise not satisfied.

sequence_input: GTCACGCA
assigned_class: not satisfied
//
sequence_input: CGTACGCA
assigned_class: not satisfied
//
sequence_input: CTACACGC
assigned_class: not satisfied
//
sequence_input: AGAAGGAA
assigned_class: not satisfied
//
sequence_input: CTATTGAC
assigned_class: satisfied
//
sequence_input: GTCAAAAA
assigned_class: not satisfied
//
sequence_input: TTAAGTAA
assigned_class: not satisfied
//
sequence_input: ACACGACT
assigned_class: not satisfied
//
sequence_input: ACACGATA
assigned_class: not satisfied
//
sequence_input: CAAGTAAC
assigned_class: satisfied
//
sequence_input: GCGTGTTA
assigned_class: not satisfied
//
sequence_input: CACGCTTC
assigned_class: not satisfied
//
sequence_input: CGAAGGAA
assigned_class: satisfied
//
sequence_input: CGTAGTCA
assigned_class: not satisfied
//
sequence_input: TCACGGCA
assigned_class: not satisfied
//
sequence_input: AAGTCAAA
assigned_class: not satisfied
//
sequence_input: GTTCCGTA
assigned_class: not satisfied
//
sequence_input: CATTTGAC
assigned_class: satisfied
//
sequence_input: AAGTCAAT
assigned_class: not satisfied
//
sequence_input: AGCGTGTC
assigned_class: not satisfied
//
sequence_input: TAGCGTGA
assigned_class: not satisfied
//
sequence_input: TACACGCA
assigned_class: not satisfied
//
sequence_input: AGCGTAAG
assigned_class: satisfied
//
sequence_input: ATGCGTAC
assigned_class: not satisfied
//
sequence_input: GTAAGTCA
assigned_class: not satisfied
//
sequence_input: CGTTTGAC
assigned_class: satisfied
//
sequence_input: TAAAGTCA
assigned_class: satisfied
//
sequence_input: TGAAGAAA
assigned_class: not satisfied
//
sequence_input: CGACACGC
assigned_class: not satisfied
//
sequence_input: CGTGGTCA
assigned_class: satisfied
//
sequence_input: AGGGTAAT
assigned_class: not satisfied
//
sequence_input: AGACGTGA
assigned_class: not satisfied
//
sequence_input: ATGTCGTG
assigned_class: not satisfied
//
sequence_input: AGGGAAAA
assigned_class: not satisfied
//
sequence_input: GTACGCAA
assigned_class: not satisfied
//
sequence_input: ACTTAACC
assigned_class: not satisfied
//
sequence_input: TGACTCAA
assigned_class: satisfied
//
sequence_input: GCACGTAA
assigned_class: not satisfied
//
sequence_input: ATGGTCAA
assigned_class: not satisfied
//
sequence_input: AAAGTCAA
assigned_class: not satisfied
//
sequence_input: TTAAGCAA
assigned_class: not satisfied
//
sequence_input: GTTACGTA
assigned_class: not satisfied
//
sequence_input: AACACGCA
assigned_class: not satisfied
//
sequence_input: CACGTTAC
assigned_class: not satisfied
//
sequence_input: TAACGTGA
assigned_class: not satisfied
//
sequence_input: GTGCCGTA
assigned_class: not satisfied

====

Catalogue of sequences with associated binding signal
# target_entity: GST-VND3 NAC domain (Arabidopsis thaliana, UniProt Q9FH59 12-162)
# Sequence: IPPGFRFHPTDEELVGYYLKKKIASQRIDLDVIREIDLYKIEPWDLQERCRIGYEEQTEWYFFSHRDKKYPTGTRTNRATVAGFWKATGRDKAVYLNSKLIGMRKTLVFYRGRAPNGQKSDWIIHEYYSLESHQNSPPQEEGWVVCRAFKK
# method_summary: universal protein binding microarray (PBM); transcription factors of Arabidopsis thaliana; high values mean tight binding
# condition_parameters: protein: recombinant; tags: GST; chain copies: 2; dsDNA, one strand shown
value_kind: binding signal (E-score)

sequence_input: GCACGTTA
value_kind: binding signal
value_reported: 0.217
//
sequence_input: CACGAAAC
value_kind: binding signal
value_reported: 0.326
//
sequence_input: CGTCAACA
value_kind: binding signal
value_reported: 0.0753
//
sequence_input: GTTGACAA
value_kind: binding signal
value_reported: 0.0521
//
sequence_input: ATACGCTA
value_kind: binding signal
value_reported: 0.163
//
sequence_input: ACGTGTAC
value_kind: binding signal
value_reported: 0.267
//
sequence_input: AGTCAATC
value_kind: binding signal
value_reported: 0.0908
//
sequence_input: CCTTACCC
value_kind: binding signal
value_reported: 0.0668
//
sequence_input: ATTTTGAC
value_kind: binding signal
value_reported: 0.101
//
sequence_input: AAGCAAAG
value_kind: binding signal
value_reported: 0.198
//
sequence_input: ACACGTAT
value_kind: binding signal
value_reported: 0.38
//
sequence_input: TGAAGAAA
value_kind: binding signal
value_reported: 0.121
//
sequence_input: CTACGTTA
value_kind: binding signal
value_reported: 0.24
//
sequence_input: AGAGTCAA
value_kind: binding signal
value_reported: 0.0953
//
sequence_input: GATGCGTA
value_kind: binding signal
value_reported: 0.267
//
sequence_input: GCAAGTAA
value_kind: binding signal
value_reported: 0.231
//
sequence_input: CAAGACCA
value_kind: binding signal
value_reported: 0.0681
//
sequence_input: AACGTACG
value_kind: binding signal
value_reported: 0.308

Hello, the source for this data is paper PMC4081100, in case you need it.
